Assay: Pharmacokinetic test in mice
Format: in vivo
Conditions: mouse, plasma; male ICR mice, intravenous injection 5 mg/kg
Cut-off 3000 ng·h/mL on AUC(0-t): below means rule met, at or above means rule not met.

1. O=C(Cc1ccc(-c2ccc(OCCN3C[C@H]4COC[C@H]4C3)cc2Cl)cn1)NCc1ccccc1 [Compound I-30] | rule met
2. O=C(Cc1ccc(-c2ccc(OCCN3CCOCC3)cc2)cn1)NCc1ccccc1 [Control compound I, Tirbanibulin, reference compound] | rule not met
3. C[C@H]1COCCN1CCOc1ccc(-c2ccc(CC(=O)NCc3ccccc3)nc2)c(F)c1 [Compound I-24A] | rule met
4. Cc1cc(OCCN2CC3(COC3)C2)ccc1-c1ccc(CC(=O)NCc2ccccc2)nc1 [Compound I-5] | rule met
5. C[C@@H]1COCCN1CCOc1ccc(-c2ccc(CC(=O)NCc3ccccc3)nc2)c(F)c1 [Compound I-24B] | rule met
